Every entry's value here was drawn from patent US7619089B2.

measured on: native human transporter glyt1 (Homo sapiens, UniProt P48067)
Construct: expressing the native human transporter glyt1; endogenous in cells
Sequence (P48067 whole entry): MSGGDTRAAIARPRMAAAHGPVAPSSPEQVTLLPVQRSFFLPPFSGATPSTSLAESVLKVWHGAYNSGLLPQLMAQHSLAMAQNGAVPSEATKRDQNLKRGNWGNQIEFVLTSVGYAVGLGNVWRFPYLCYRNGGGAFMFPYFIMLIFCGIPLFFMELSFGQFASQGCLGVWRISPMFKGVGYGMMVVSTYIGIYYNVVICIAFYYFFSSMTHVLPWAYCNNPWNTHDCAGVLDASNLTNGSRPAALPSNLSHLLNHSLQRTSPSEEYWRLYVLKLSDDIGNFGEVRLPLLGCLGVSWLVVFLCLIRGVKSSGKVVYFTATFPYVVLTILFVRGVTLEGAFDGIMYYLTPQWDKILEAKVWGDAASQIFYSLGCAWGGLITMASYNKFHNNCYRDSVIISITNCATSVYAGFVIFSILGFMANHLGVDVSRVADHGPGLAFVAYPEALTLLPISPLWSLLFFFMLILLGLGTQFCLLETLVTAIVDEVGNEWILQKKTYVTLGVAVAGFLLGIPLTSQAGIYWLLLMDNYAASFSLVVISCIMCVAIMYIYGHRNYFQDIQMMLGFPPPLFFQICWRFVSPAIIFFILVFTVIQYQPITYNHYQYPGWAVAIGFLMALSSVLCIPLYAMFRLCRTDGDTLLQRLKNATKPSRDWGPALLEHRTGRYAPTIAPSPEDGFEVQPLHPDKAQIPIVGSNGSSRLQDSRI
test details: Transport of glycine ([14C]glycine capture) in SK-N-MC cells expressing the native human transporter glyt1
experimental conditions: 10 μM [14C]glycine, 10 min at 37° C., pH 7.4, read-out: IC50, concentration which reduces by 50% the specific capture of glycine
outcome measure: pIC50
Expect pIC50 as a plain number equal to -log10 of the molar concentration.

Sample answers from the record:
O=C(NC(c1ccccc1)C1CC2CCN1CC2)c1c(Cl)ccc(C(F)(F)F)c1Cl (centres unmarked) ... 8.40
O=C(NC(c1ccc(F)cc1)C1CC2CCN1CC2)c1c(Cl)ccc(C(F)(F)F)c1Cl (centres unmarked) ... 7.15
O=C(NC(c1ccccc1)C1CC2CCN1CC2)c1cccc(C(F)(F)F)c1Cl (centres unmarked) ... 7.77
O=C(N[C@@H](c1ccccc1)[C@@H]1CC2CCN1CC2)c1c(Cl)ccc(C(F)(F)F)c1Cl ... 9.00

For the next question, use this molecule.
Quick one: give measured pIC50 for C=CC1CN2CCC1CC2C(NC(=O)c1cccc(C(F)(F)F)c1Cl)c1ccnc2ccccc12 (centres unmarked)
7.15
